# MIC per record follows
- Test system: Citrobacter freundii GN346/16
- assay-explanation: antibacterial activity, MIC by standard serial dilution method
- Type: cell-based
All answers are understood in µg/mL, so give the number only.

Reported MIC for CO/N=C(\C(=O)NC1C(=O)N2C(C(=O)O)=C(SCC3CCOCC3)CS[C@H]12)c1csc(N)n1 (some centres unmarked) [Compound No. 31] : what is it?
3.13

Requested field: MIC. Item: CO/N=C(\C(=O)NC1C(=O)N2C(C(=O)O)=C(SC3CCOCC3)CS[C@H]12)c1csc(N)n1 (some centres unmarked) [Compound No. 7]
6.25

###

Assay read-out log10 MIC; system under study: Staphylococcus epidermidis ATCC14990.
On a log10 scale: recorded MIC, unit µg/mL.

Nc1nc(/C(=N/O)C(=O)NC2C(=O)N3C(C(=O)O)=C(SCC4CCOCC4)CS[C@H]23)cs1 (some centres unmarked) [Compound No. 37] | -0.41
CO/N=C(\C(=O)NC1C(=O)N2C(C(=O)O)=C(SCC3CCCCO3)CS[C@H]12)c1csc(N)n1 (some centres unmarked) [Compound No. 23] | 0.50
CO/N=C(\C(=O)NC1C(=O)N2C(C(=O)O)=C(SCC3CCOCC3)CS[C@H]12)c1csc(N)n1 (some centres unmarked) [Compound No. 31] | 0.19
CO/N=C(\C(=O)NC1C(=O)N2C(C(=O)O)=C(SC3CCOC3)CS[C@H]12)c1csc(N)n1 (some centres unmarked) [Compound No. 3] | -0.41
Nc1nc(/C(=N/O)C(=O)NC2C(=O)N3C(C(=O)O)=C(SCC4COCO4)CSC23)cs1 (centres unmarked) [Compound No. 35] | -0.70
CO/N=C(\C(=O)NC1C(=O)N2C(C(=O)O)=C(SC3CCOCC3)CS[C@H]12)c1csc(N)n1 (some centres unmarked) [Compound No. 7] | -0.41
CO/N=C(\C(=O)NC1C(=O)N2C(C(=O)O)=C(SC3COCOC3)CSC12)c1csc(N)n1 (centres unmarked) [Compound No. 19] | -0.11
Nc1nc(/C(=N/O)C(=O)NC2C(=O)N3C(C(=O)O)=C(SC4CCOCC4)CS[C@H]23)cs1 (some centres unmarked) [Compound No. 15] | -0.70

Query the reported log10 MIC for Staphylococcus epidermidis ATCC14990; item: CO/N=C(\C(=O)NC1C(=O)N2C(C(=O)O)=C(SCC3COCOC3)CS[C@H]12)c1csc(N)n1 (some centres unmarked) [Compound No. 33]
-0.11

Param readout= log10 MIC; system= Staphylococcus epidermidis ATCC14990; entry= Nc1nc(/C(=N/O)C(=O)NC2C(=O)N3C(C(=O)O)=C(SC4CCOC4)CS[C@H]23)cs1 (some centres unmarked) [Compound No. 13] ; returns value.
-0.70

Form: Entry = Nc1nc(/C(=N/O)C(=O)NC2C(=O)N3C(C(=O)O)=C(SC4COCOC4)CS[C@H]23)cs1 (some centres unmarked) [Compound No. 21] | System = Staphylococcus epidermidis ATCC14990 | log10 MIC = ____
-0.70

For the record CO/N=C(\C(=O)NC1C(=O)N2C(C(=O)O)=C(SCC3COCO3)CS[C@H]12)c1csc(N)n1 (some centres unmarked) [Compound No. 29] , what value of log10 MIC is listed for Staphylococcus epidermidis ATCC14990?
-0.11

Value wanted: log10 MIC (Staphylococcus epidermidis ATCC14990) of entry CO/N=C(\C(=O)NC1C(=O)N2C(C(=O)O)=C(SCC3CCOC(C)(C)O3)CS[C@H]12)c1csc(N)n1 (some centres unmarked) [Compound No. 9]
0.19

Item: Nc1nc(/C(=N/O)C(=O)NC2C(=O)N3C(C(=O)O)=C(SCC4CCCO4)CS[C@H]23)cs1 (some centres unmarked) [Compound No. 11] Test system: Staphylococcus epidermidis ATCC14990 Read-out: log10 MIC Value: ?
-0.70

###

- Tested on: Enterobacter hirae ATCC8043
quantity-name: log10 MIC (log10 of the value in µg/mL)
// stored as log10 of MIC expressed in µg/mL

Examples with their reported log10 MIC follow.
CO/N=C(\C(=O)NC1C(=O)N2C(C(=O)O)=C(SCC3COC(C)(C)O3)CS[C@H]12)c1csc(N)n1 (stereo partly drawn) | 1.40
Nc1nc(/C(=N/O)C(=O)NC2C(=O)N3C(C(=O)O)=C(SC4CCOCC4)CS[C@H]23)cs1 (stereo partly drawn) | 0.80
Nc1nc(/C(=N/O)C(=O)NC2C(=O)N3C(C(=O)O)=C(SC4CCOC4)CS[C@H]23)cs1 (stereo partly drawn) | 0.50
Nc1nc(/C(=N/O)C(=O)NC2C(=O)N3C(C(=O)O)=C(SCC4CCCCO4)CS[C@H]23)cs1 (stereo partly drawn) | 1.10
CO/N=C(\C(=O)NC1C(=O)N2C(C(=O)O)=C(SC3COCOC3)CSC12)c1csc(N)n1 (stereo not drawn) | 1.40
CO/N=C(\C(=O)NC1C(=O)N2C(C(=O)O)=C(SCC3CCOC(C)(C)O3)CS[C@H]12)c1csc(N)n1 (stereo partly drawn) | 1.40

Report log10 MIC for Nc1nc(/C(=N/O)C(=O)NC2C(=O)N3C(C(=O)O)=C(SC4COCOC4)CS[C@H]23)cs1 (stereo partly drawn) tested on Enterobacter hirae ATCC8043.
0.50

API: value(readout= log10 MIC, system= Enterobacter hirae ATCC8043, query= Nc1nc(/C(=N/O)C(=O)NC2C(=O)N3C(C(=O)O)=C(SCC4CCOCC4)CS[C@H]23)cs1 (stereo partly drawn) )
1.70

Query the reported log10 MIC for Enterobacter hirae ATCC8043; item: CO/N=C(\C(=O)NC1C(=O)N2C(C(=O)O)=C(SCC3CCCCO3)CS[C@H]12)c1csc(N)n1 (stereo partly drawn)
1.40

###

- Tested on: Klebsiella pneumoniae PCI602
quantity-name: MIC (mg/L)
Give the quantity in mg/L, number only.

Below, each entry is followed by its recorded MIC result.
CO/N=C(\C(=O)NC1C(=O)N2C(C(=O)O)=C(SCC3CCOC(C)(C)O3)CS[C@H]12)c1csc(N)n1 (stereo partly shown) | 3.13
Nc1nc(/C(=N/O)C(=O)NC2C(=O)N3C(C(=O)O)=C(SC4COCOC4)CS[C@H]23)cs1 (stereo partly shown) | 0.2
CO/N=C(\C(=O)NC1C(=O)N2C(C(=O)O)=C(SCC3CCOC3)CS[C@H]12)c1csc(N)n1 (stereo partly shown) | 0.39

Requested read-out: MIC. Entry: Nc1nc(/C(=N/O)C(=O)NC2C(=O)N3C(C(=O)O)=C(SC4CCOCC4)CS[C@H]23)cs1 (stereo partly shown)
0.39

What MIC value was documented for this compound, CC1(C)OCCC(CSC2=C(C(=O)O)N3C(=O)C(NC(=O)/C(=N\O)c4csc(N)n4)[C@H]3SC2)O1 (stereo partly shown) ?
6.25

###

- Test system: Escherichia coli 255
- assay-explanation: antibacterial activity, MIC by standard serial dilution method
- Assay type: cell-based
quantity-name: MIC
Please format your answer as a value with the unit trailing.

CO/N=C(\C(=O)NC1C(=O)N2C(C(=O)O)=C(SCC3CCOC3)CS[C@H]12)c1csc(N)n1 (some centres unmarked) | 50 µg/mL
CO/N=C(\C(=O)NC1C(=O)N2C(C(=O)O)=C(SCC3CCOC(C)(C)O3)CS[C@H]12)c1csc(N)n1 (some centres unmarked) | 100 µg/mL
Nc1nc(/C(=N/O)C(=O)NC2C(=O)N3C(C(=O)O)=C(SCC4CCCO4)CS[C@H]23)cs1 (some centres unmarked) | 50 µg/mL
Nc1nc(/C(=N/O)C(=O)NC2C(=O)N3C(C(=O)O)=C(SCC4COCO4)CSC23)cs1 (centres unmarked) | 50 µg/mL
CO/N=C(\C(=O)NC1C(=O)N2C(C(=O)O)=C(SCC3CCOCC3)CS[C@H]12)c1csc(N)n1 (some centres unmarked) | 25 µg/mL

If you can, please state the reported MIC value of CO/N=C(\C(=O)NC1C(=O)N2C(C(=O)O)=C(SCC3CCCCO3)CS[C@H]12)c1csc(N)n1 (some centres unmarked) .
50 µg/mL

If you can, please state the reported MIC value of CO/N=C(\C(=O)NC1C(=O)N2C(C(=O)O)=C(SCC3CCCO3)CS[C@H]12)c1csc(N)n1 (some centres unmarked) .
25 µg/mL

MIC for CO/N=C(\C(=O)NC1C(=O)N2C(C(=O)O)=C(SC3CCOCC3)CS[C@H]12)c1csc(N)n1 (some centres unmarked) ?
50 µg/mL

For CO/N=C(\C(=O)NC1C(=O)N2C(C(=O)O)=C(SCC3COCOC3)CS[C@H]12)c1csc(N)n1 (some centres unmarked) , what is its reported MIC?
50 µg/mL

Dear colleague, I am looking for the recorded MIC of the following compound: Nc1nc(/C(=N/O)C(=O)NC2C(=O)N3C(C(=O)O)=C(SC4COCOC4)CS[C@H]23)cs1 (some centres unmarked)
25 µg/mL

Reported MIC for Nc1nc(/C(=N/O)C(=O)NC2C(=O)N3C(C(=O)O)=C(SC4CCOCC4)CS[C@H]23)cs1 (some centres unmarked) : what is it?
50 µg/mL

Any idea what MIC was measured for CO/N=C(\C(=O)NC1C(=O)N2C(C(=O)O)=C(SC3CCOC3)CS[C@H]12)c1csc(N)n1 (some centres unmarked) ?
50 µg/mL

Requested field: MIC. Item: Nc1nc(/C(=N/O)C(=O)NC2C(=O)N3C(C(=O)O)=C(SC4CCOC4)CS[C@H]23)cs1 (some centres unmarked)
50 µg/mL

Which MIC value belongs to CC1(C)OCCC(CSC2=C(C(=O)O)N3C(=O)C(NC(=O)/C(=N\O)c4csc(N)n4)[C@H]3SC2)O1 (some centres unmarked) ?
100 µg/mL
